Measured Kd, listed per entry.
- target system: T1, recombinant human sclerostin (human, UniProt Q9BQB4 24-213)
- T1 construct: biotinylated in the ELISAs; also called hu sclerostin; hu scl
- T1 sequence: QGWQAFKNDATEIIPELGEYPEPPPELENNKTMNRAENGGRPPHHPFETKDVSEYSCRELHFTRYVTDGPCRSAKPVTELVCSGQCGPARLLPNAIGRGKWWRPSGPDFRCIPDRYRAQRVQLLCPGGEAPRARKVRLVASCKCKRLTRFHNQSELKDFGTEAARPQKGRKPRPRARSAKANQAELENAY
- experiment notes: SPR
Answer format: numeric, pM implied, no suffix.

Illustrative cases are given below, each with its answer.
binder | Kd [pM]
AE10-6-AM8 (antibody, V domains shown, converted into IgG) VH: EVQLVQSGAEVKKPGASVKVSCKVSGYTLSELSIHWVRQAPGKGLEWMGGFDPEDGETIYAQKFQGRVTMTEDTSTDTAYMELSSLRSEDTAVYYCATDSAGYWYKFFQHWGQGTLVTVSS VL: QAVVTQEPSLTVSPGGTVTLTCGSSTGAVTIDHYPYWFQQKPGQAPRTLISDTDDKHSWTPARFSGSLLGGKAALTLSGAQPEDEAEYYCLLDYGGSFVFGGGTKLTVL | 1.3
AE10-6-AM5 (antibody, V domains shown, converted into IgG) VH: EVQLVQSGAEVKKPGASVKVSCKVSGYTLSELSMHWVRQAPGKGLEWMGGFDPEGGETIYAQKFQGRVTMTEDTSTDTAYMELSSLRSEDTAVYYCATDAGGYWYKFFQHWGQGTLVTVSS VL: QAVVTQEPSLTVSPGGTVTLTCGSSTGTVTIDHYPYWFQQKPGQAPRTLISDTDDKHSWTPARFSGSLLGGKAALTLSGAQPEDEAEYYCLLFYGGTVVFGGGTKLTVL | 3

QUERY: Note down Kd recorded for AE10-6-AM7 (antibody, V domains shown, converted into IgG; also called rHC + LC S4 clone 131) VH: EVQLVQSGAEVKKPGASVKVSCKVSGYTLTELSMHWVRQAPGKGLEWMGGFDPEDGETIYAQKFQGRVTMTEDTSTDTAYMELSSLRSEDTAVYYCATDTVGYWEKFFQHWGQGTLVTVSS VL: QAVVTQEPSLTVSPGGTVTLTCGSSTGTVTIDHYPYWFQQKPGQAPRTLISDTDDKHSWTPARFSGSLLGGKAALTLSGAQPEDEAEYYCLLDYGGRFVFGGGTKLTVL
RESULT: 0.3
